Taken from ChEMBL document CHEMBL5291721.

# Assayed System: Prostaglandin G/H synthase 1 (Homo sapiens); further: assay procedure not described here
# Sequence (P23219 whole entry): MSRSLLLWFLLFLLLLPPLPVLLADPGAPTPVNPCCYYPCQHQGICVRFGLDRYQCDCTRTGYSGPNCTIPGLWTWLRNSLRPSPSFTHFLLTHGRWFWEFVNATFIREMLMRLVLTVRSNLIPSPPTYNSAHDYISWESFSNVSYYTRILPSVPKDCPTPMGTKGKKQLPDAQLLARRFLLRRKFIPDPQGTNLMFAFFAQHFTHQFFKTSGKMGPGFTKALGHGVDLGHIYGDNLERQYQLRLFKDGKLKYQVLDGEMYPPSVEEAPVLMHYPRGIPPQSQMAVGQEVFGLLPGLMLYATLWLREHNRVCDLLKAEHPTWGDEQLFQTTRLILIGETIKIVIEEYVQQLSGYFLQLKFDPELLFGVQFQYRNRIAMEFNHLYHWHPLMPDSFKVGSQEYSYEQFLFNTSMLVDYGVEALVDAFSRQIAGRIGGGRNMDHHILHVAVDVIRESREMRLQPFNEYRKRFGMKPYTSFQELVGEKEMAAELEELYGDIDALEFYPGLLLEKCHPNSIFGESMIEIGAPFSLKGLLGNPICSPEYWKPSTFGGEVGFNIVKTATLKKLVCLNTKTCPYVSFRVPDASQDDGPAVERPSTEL
# Assay type: functional
Assign AC50 to each entry below.

molecule="CO[C@H]1/C=C/O[C@@]2(C)Oc3c(C)c(O)c4c(c3C2=O)C2=NC3(CCN(CC(C)C)CC3)NC2=C(NC(=O)/C(C)=C\\C=C\\[C@H](C)[C@H](O)[C@@H](C)[C@@H](O)[C@@H](C)[C@H](OC(C)=O)[C@@H]1C)C4=O [RIFABUTIN]" readout_type=AC50 measured_result="17.7 µM"

// each listed molecule needs a value for AC50
1. CN1CCc2c(c3ccccc3n2Cc2ccccc2)C1 [MEBHYDROLIN]
2. CNC(=O)c1cnn(-c2nc(N)c3ncn([C@@H]4O[C@H](CO)[C@@H](O)[C@H]4O)c3n2)c1 [REGADENOSON ANHYDROUS]

Output:
1. > 30 µM
2. > 30 µM

---

Quick record of AC50 values for B2 bradykinin receptor (Homo sapiens, UniProt P30411).

# example entries with known answers
compound="CCN(C(C)=O)c1cccc(-c2ccnc3c(C#N)cnn23)c1 [ZALEPLON]" assayed_system="B2 bradykinin receptor (Homo sapiens, UniProt P30411)" readout_type=AC50 measured_result="> 30 µM"
compound="CC(C)(Oc1ccc(Cl)cc1)C(=O)OCCOC(=O)c1cccnc1 [ETOFIBRATE]" assayed_system="B2 bradykinin receptor (Homo sapiens, UniProt P30411)" readout_type=AC50 measured_result="> 30 µM"
compound="Oc1cc(Cl)ccc1Oc1ccc(Cl)cc1Cl [TRICLOSAN]" assayed_system="B2 bradykinin receptor (Homo sapiens, UniProt P30411)" readout_type=AC50 measured_result="> 30 µM"
compound="CC(C)(C)NCC(O)COc1cccc2c1CC(O)C(O)C2 (stereo unspecified) [NADOLOL]" assayed_system="B2 bradykinin receptor (Homo sapiens, UniProt P30411)" readout_type=AC50 measured_result="> 10 µM"
compound="CN(C)CCOC(c1ccc(Cl)cc1)c1ccccn1 (stereo unspecified) [CARBINOXAMINE]" assayed_system="B2 bradykinin receptor (Homo sapiens, UniProt P30411)" readout_type=AC50 measured_result="> 30 µM"
compound="COc1nc(C)nc(Cl)c1N=C1NCCN1 [MOXONIDINE]" assayed_system="B2 bradykinin receptor (Homo sapiens, UniProt P30411)" readout_type=AC50 measured_result="> 30 µM"
compound="CC(=O)OCC(=O)[C@@]1(O)CC[C@H]2[C@@H]3CCC4=CC(=O)CC[C@]4(C)[C@@]3(F)[C@@H](O)C[C@@]21C [FLUDROCORTISONE ACETATE]" assayed_system="B2 bradykinin receptor (Homo sapiens, UniProt P30411)" readout_type=AC50 measured_result="> 30 µM"
compound="NCCCNCCSP(=O)(O)O [AMIFOSTINE]" assayed_system="B2 bradykinin receptor (Homo sapiens, UniProt P30411)" readout_type=AC50 measured_result="> 30 µM"
compound="CC1CC(OC(=O)C(O)c2ccccc2)CC(C)(C)C1 (stereo unspecified) [CYCLANDELATE]" assayed_system="B2 bradykinin receptor (Homo sapiens, UniProt P30411)" readout_type=AC50 measured_result="> 10 µM"
compound="COC(=O)[C@H]1[C@H]2C[C@@H]3c4[nH]c5ccccc5c4CCN3C[C@H]2C[C@@H](OC(=O)c2cc(OC)c(OC)c(OC)c2)[C@@H]1OC [DESERPIDINE]" assayed_system="B2 bradykinin receptor (Homo sapiens, UniProt P30411)" readout_type=AC50 measured_result="> 30 µM"

# batch size: 7; output AC50 per entry
1. CCOc1ccccc1OCCN[C@H](C)Cc1ccc(OC)c(S(N)(=O)=O)c1 [TAMSULOSIN]
2. COC(=O)CCc1ccc(OCC(O)CNC(C)C)cc1 (stereo unspecified) [ESMOLOL]
3. O=C(c1ccccc1)c1ccc2n1CCC2C(=O)O (stereo unspecified) [KETOROLAC]
4. CO/N=C(\C(=O)N[C@@H]1C(=O)N2C(C(=O)[O-])=C(C[n+]3ccc(N)n3CCO)CS[C@H]12)c1csc(N)n1 [CEFOSELIS]
5. N=C(N)NC(=O)c1nc(Cl)c(N)nc1N [AMILORIDE]
6. N[C@@H](Cc1cc(I)c(Oc2cc(I)c(O)c(I)c2)c(I)c1)C(=O)O [LEVOTHYROXINE]
7. CCC1(C)CC(=O)NC1=O (stereo unspecified) [ETHOSUXIMIDE]

Output:
1. > 30 µM
2. > 30 µM
3. > 10 µM
4. > 30 µM
5. > 30 µM
6. > 10 µM
7. > 10 µM
